system: MRSA; assay: Broth microdilution MIC, Example 7 (NCL812 and analogues); type: cell-based, Staphylococcus aureus; details: MRSA 1; 24 hours; duplicate lines per compound
For each of the compounds below, state its MIC (μg/ml) at 24 hours, MRSA 1.

Recall and state the measured MIC (μg/ml) at 24 hours, MRSA 1 for "Cl.N=C(N/N=C/c1ccc(Cl)cc1Cl)N/N=C/c1ccc(Cl)cc1Cl" .
>128 µg/mL

Give reported MIC (μg/ml) at 24 hours, MRSA 1 value for "Cl.N=C(NNCc1ccccc1)NNCc1ccccc1"
>128 µg/mL

Give the value of MIC (μg/ml) at 24 hours, MRSA 1 reported for the following: "Cl.N=C(NN=Cc1ccc(-c2ccccc2)cc1)NN=Cc1ccc(-c2ccccc2)cc1"
>128 µg/mL

Kindly indicate its recorded MIC (μg/ml) at 24 hours, MRSA 1. Item: "Cl.N=C(NN=CC(=Cc1ccccc1)c1ccccc1)NN=CC(=Cc1ccccc1)c1ccccc1"
>128 µg/mL

Indicate the recorded MIC (μg/ml) at 24 hours, MRSA 1 value for this compound: "Cl.N=C(NN=Cc1ccccc1-c1ccccc1)NN=Cc1ccccc1-c1ccccc1"
>128 µg/mL

Please list MIC (μg/ml) at 24 hours, MRSA 1 recorded for the compound "COc1cc(C=NNC(=N)NN=Cc2cc(O)c(O)c(OC)c2)cc(O)c1O.Cl"
>128 µg/mL

# return recorded MIC (μg/ml) at 24 hours, MRSA 1 for entry "Cl.N=C(NN=Cc1ccc(C=CCC(=O)O)cc1)NN=Cc1ccc(C=CCC(=O)O)cc1"
>128 µg/mL

Determine its reported MIC (μg/ml) at 24 hours, MRSA 1: "Cl.N=C(N/N=C/c1ccncc1)N/N=C/c1ccncc1"
>128 µg/mL

Tell me MIC (μg/ml) at 24 hours, MRSA 1 reported for "Cl.N=C(NN=Cc1cc(Cl)cc(Cl)c1)NN=Cc1cc(Cl)cc(Cl)c1"
>128 µg/mL

Respond only with MIC (μg/ml) at 24 hours, MRSA 1 recorded for "Cl.N=C(NN=Cc1ccoc1)NN=Cc1ccoc1"
>128 µg/mL

Please report the measured MIC (μg/ml) at 24 hours, MRSA 1 for "Cc1cccc(C=NNC(=N)NN=Cc2cccc(C)c2O)c1O.Cl"
>128 µg/mL

====

system: VRE; experiment: Broth microdilution MIC, Example 7 (NCL812 and analogues); format: cell-based, Enterococcus spp.; conditions: VRE 1; 24 hours; duplicate lines per compound
MEASURED QUANTITY: MIC (μg/ml) at 24 hours, VRE 1

Answer with the recorded MIC (μg/ml) at 24 hours, VRE 1 for the compound listed here: "CCCCC(=NNC(=N)NN=C(CCCC)c1ccc(Cl)cc1)c1ccc(Cl)cc1.Cl"
>128 µg/mL

Please look at this compound and report its MIC (μg/ml) at 24 hours, VRE 1: "Cl.N=C(NN=Cc1c(Cl)cccc1Cl)NN=Cc1c(Cl)cccc1Cl"
>128 µg/mL

Identify MIC (μg/ml) at 24 hours, VRE 1 associated with the compound "Cl.N=C(N/N=C/c1c(F)c(F)c(F)c(F)c1F)N/N=C/c1c(F)c(F)c(F)c(F)c1F"
>128 µg/mL

Check the records and state MIC (μg/ml) at 24 hours, VRE 1 for "Cl.N=C(N/N=C/c1ccccc1Br)N/N=C/c1ccccc1Br"
>128 µg/mL

Give me measured MIC (μg/ml) at 24 hours, VRE 1, please, for this compound: "CC(=O)Nc1cc(Cl)ccc1C=NNC(=N)NN=Cc1ccc(Cl)cc1NC(C)=O"
>128 µg/mL

Identify the reported MIC (μg/ml) at 24 hours, VRE 1 for the following entry. "Cl.Cl.Cl.N=C(NN=C(CN)c1ccccc1)NN=C(CN)c1ccccc1"
>128 µg/mL

Recorded values, source patent US10253002B2.
